From: PubChem BioAssay

assay: Plasmodium falciparum growth inhibition, primary screen, strain 3D7, DAPI fluorescence, 100 nL (AID 1184);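 note: parasites grown inside human red blood cells in medium with human serum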; details: P. falciparum 3D7 growth, 3 d, higher = more signal
MET means recorded z-score is -0.1 or above; NOT MET means it is below -0.1.

Observe how each entry below is paired with its result.
COC(=O)[C@@H]1CC[C@H](C)[C@@H](c2ccc(Br)cc2)N1C[C@@H](O)CN=[N+]=[N-]
NOT MET
O=C1[C@H]2[C@H]3[C@H](O)[C@H](O)CC(=NOC[C@@H](O)COCc4ccco4)[C@@H]3CC[C@H]2C(=O)N1C1CCCCC1
MET
CCOC(=O)[C@H](CC(C)C)NC(=O)CCC1CC(OC(=O)NCCc2ccc(F)cc2)CC2(CCCC(COC(=O)NCCCN3CCCC3=O)O2)O1 (stereo not given in full)
NOT MET
C#CCCCON=C1C[C@@H](O)[C@@H](O)[C@@H]2[C@@H]3C(=O)N(C4CCCCC4)C(=O)[C@@H]3CC[C@@H]12
MET

In: Does the compound "O=C1C2=CC[C@H]3C(=O)N(Cc4ccccc4)C(=O)[C@H]3[C@H]2[C@H](O)[C@@H]2O[C@H]12" have recorded z-score that is -0.1 or more?
Out: NOT MET

In: Does the compound CCOC(=O)[C@H](Cc1ccccc1)NC(=O)CCC1CC(OC(=O)NCc2cccc3ccccc23)CC2(CCCC(COC(=O)NCCc3ccc(Cl)cc3)O2)O1 (stereo not given in full) have recorded z-score that is -0.1 or more?
Out: NOT MET

In: Does the compound "COC(=O)CC=C[C@@H](C)[C@@H](C=NOC[C@@H](C)[C@H](OCc1ccccc1)C(C)C)NS(=O)(=O)c1ccc(C)cc1" have recorded z-score that is -0.1 or more?
Out: NOT MET

In: Does the compound CCOC(=O)[C@H](Cc1ccccc1)NC(=O)CCC1CC(OC(=O)NCc2ccc3c(c2)OCO3)CC2(CCCC(COC(=O)NCCOc3ccccc3)O2)O1 (stereo not given in full) have recorded z-score that is -0.1 or more?
Out: NOT MET

In: Does the compound "CCc1cc2c(nc1CC)CCN(CCC(C)=NOCC[C@@H]1C=C[C@H](OC(C)=O)[C@@H](COC(C)=O)O1)C2" have recorded z-score that is -0.1 or more?
Out: NOT MET

In: Does the compound CCC1=NOC(CCC2CC(OC(=O)NCc3cccc4c3OCO4)CC3(CCCC(COC(=O)NCCc4ccc(Cl)cc4)O3)O2)C1 (stereo not given) have recorded z-score that is -0.1 or more?
Out: NOT MET

In: Does the compound "O=C1[C@H]2[C@H]3[C@H](O)[C@H](O)CC(=NOCc4ccccc4)[C@@H]3CC[C@H]2C(=O)N1c1cccc(Oc2ccccc2)c1" have recorded z-score that is -0.1 or more?
Out: NOT MET

In: Does the compound O=C1CCCC=C1C(O)c1ccc([N+](=O)[O-])cc1 (stereo not given) have recorded z-score that is -0.1 or more?
Out: MET

In: Does the compound "COc1ccc(COC(=O)NN=C2C[C@@H](O)[C@@H](O)[C@@H]3[C@@H]4C(=O)N([C@@H](C)c5ccccc5)C(=O)[C@@H]4CC[C@@H]23)cc1" have recorded z-score that is -0.1 or more?
Out: NOT MET

In: Does the compound "CC(C)(C)N1C(=O)[C@H]2[C@H]3[C@H](O)[C@H](O)CC(=NNC(=O)OCc4ccccc4)[C@H]3CC[C@H]2C1=O" have recorded z-score that is -0.1 or more?
Out: NOT MET

In: Does the compound "CC(C)[C@@H](OCc1ccccc1)[C@H](C)C=NO[C@@H](C)c1cn([C@H](CO)Cc2ccccc2)nn1" have recorded z-score that is -0.1 or more?
Out: MET
